Molecular target: T1, human FAPα-His tag (Sino biological) (human, UniProt Q12884 26-760)
T1 construct: Bought protein; also called human FAPα-His protein; not shown: His tag
T1 sequence (looked up): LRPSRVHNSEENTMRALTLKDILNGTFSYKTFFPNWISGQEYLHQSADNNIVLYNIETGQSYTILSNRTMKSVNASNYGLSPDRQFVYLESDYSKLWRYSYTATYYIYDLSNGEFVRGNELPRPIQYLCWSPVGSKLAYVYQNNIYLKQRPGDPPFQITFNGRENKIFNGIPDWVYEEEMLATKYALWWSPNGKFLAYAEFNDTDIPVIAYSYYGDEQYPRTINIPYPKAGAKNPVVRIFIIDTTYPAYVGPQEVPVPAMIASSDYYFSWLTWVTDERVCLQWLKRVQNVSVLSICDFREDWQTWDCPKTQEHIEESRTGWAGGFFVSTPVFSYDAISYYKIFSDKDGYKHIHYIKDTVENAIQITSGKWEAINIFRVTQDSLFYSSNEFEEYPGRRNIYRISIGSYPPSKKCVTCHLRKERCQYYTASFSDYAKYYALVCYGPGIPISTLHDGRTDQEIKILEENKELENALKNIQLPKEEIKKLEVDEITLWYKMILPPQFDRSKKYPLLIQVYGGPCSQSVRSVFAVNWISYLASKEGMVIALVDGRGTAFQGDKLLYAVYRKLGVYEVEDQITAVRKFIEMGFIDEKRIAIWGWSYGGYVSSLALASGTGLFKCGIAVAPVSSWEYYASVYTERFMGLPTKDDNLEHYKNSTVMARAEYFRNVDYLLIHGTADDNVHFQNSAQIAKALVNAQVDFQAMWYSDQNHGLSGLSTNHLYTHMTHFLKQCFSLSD
Experiment: ELISA, coated human FAPα-His

BINDER	QUANTITY UNIT	EC50
J40 (antibody, V domains shown, Tested as a mAb; also called FAP-J40; FAP-J40-Bio (biotin-conjugated form)) VH: EVQLLESGGGLVQPGGSLRLSCAASGFTFSSYAMSWVRQAPGKGLEWVSAISGSGGSTYYADSVKGRFTISRDNSKNTLYLQMNSLRTDDTAVYYCARDLTTSTGWESWGQGTLVTVSA VL: NIQMTQSPSSVSASVGDRVTITCRASQGISSWLAWYQQKPGKAPKLLIYAASSLQSGVPSRFSGSGSGTDFTLTISSLQPEDFATYYCQQANSFPPTFGQGTKLEIK	ng/mL	3.87
I38 (antibody, V domains shown, Tested as a mAb; also called FAP-I38) VH: EVQLVQSGAEVKEPGVSVKVSCKASGYTFASYGLSWVRLAPGQGLQWMGWISPYTPNPIYAPNFRDKVILTTDRSTNTAYLEVRSLRSDDTGLYYCARNHWVGRPTRAFDLWGQGTMVTVSA VL: EIVLTQSPGTLSLSPGERATLSCRASQTVSITHLAWYQQKPGQAPRLLTYGASARATGIPDRFSVSGSGTDFTLTITRLEPEDFAVYYCQHYGSSITFGGGTKVEIK	ng/mL	4.89
I37 (antibody, V domains shown, Tested as a mAb; also called FAP-I37) VH: QLQLVESGGGLVQPGGSLRLSCAASGFTFSSYAMSWVRQAPGKGLEWVSAISGSGGSTYYADSVKGRFTISRDNSKNTLYLQMNSLRAEDTAVYYCARDKPWGGSFDYWGQGTLVTVSA VL: DIQLTQSPSSLSASVGDRVTITCRASQGISSWLAWYQQKPGKAPKLLIYAASSLQSGVPSRFSGSGSGTDFTLTISSLQPEDFATYYCQQANSFPVTFGPGTKVDIK	ng/mL	5.4
